procedure-summary: folding stability dG unfold from chymotrypsin proteolysis; higher = more stable
measured-endpoint: folding stability dG unfold (kcal/mol)
Reply with just the number (in kcal/mol).

folding stability dG unfold measured on SAGGSAGGSAGGYIEIVFAHPDPEPGYKYAMVMEIQMDPPGNMEMNIRVIKDPEDAKEAFSAGGSAGGSAGG [r11_792_TrROS] = 1.43

folding stability dG unfold measured on SAGGTATVEAALAALPADLPRGSLALHPETGLVEPLEPSPEDAVAYPVNPATGERYPLRVEADAVRLLSAGG [r13_803_JUSTAS] = 0.461

folding stability dG unfold measured on SAGGMTVERVPGSGVYTLTFPDGSTETLEIPPEENAVVYAKEGAGTVTVKLAPPDDPEALAAAAALSSAGGS [r16_623_JUSTAS] = 0.357

folding stability dG unfold measured on SAGGLLPALLAPGFRKPPELPLVVVEAPIEEAVALAKENPSLGVLLVRVGGKLYLIDPKTGKVAPLGSAGGS [r16_214_TrMRF] = 1.6

folding stability dG unfold measured on SAGGAPVSVSTSTLPDGRTVTTTTYPSGSTTTTITDPVTGATATASSPGSGTTTFTDPATGATTVVGSAGGS [r16_91_JUSTAS] = 0.635

folding stability dG unfold measured on SAGGYVRIRIELQEKRKPPDGKQQQRKKKITITVRLPPNEEMRMPDGKDIDPGKSAEELADYALDNLSAGGS [r16_440_TrROS] = 1.68

folding stability dG unfold measured on SMVVERDPDGVLRVYASPEEAERIVAELKAAGLDARVEAFDPETGVWVIPVRPVPPAGLEPTPENQALNRVS [r1_78_JUSTAS] = 1.23

folding stability dG unfold measured on SAGGSAGGSAGVVLKEPKGGVPKTITEDPNHPGLYTTGSPDGTISTRPLEIKPEEEPVLLSAGGSAGGSAGG [r17_85_JUSTAS] = -0.542

folding stability dG unfold measured on SAGGMTLRIVLPEEEAEKLVEELKKIFPGAEIKVKKVEYNEETGEKLVVLEIKFKSKEEAEKAKKLLESAGG [r13_539_TrROS_Hall] = 3.8

folding stability dG unfold measured on SAETVVTPRRSTLPDGTRLEEDVVTLPDGTTVTPVRVVRRDPETGREVVEFWVRTTDPATGTTTTTPLPSAG [r14_324_JUSTAS] = 1.72

folding stability dG unfold measured on SAGGENVIIRYKDPDRFKEAIQDAPGIPPENVKTKPNPNGWNEVTFPNPEALDRLKKAGYPVDKIEPSAGGS [r16_381_TrROS] = -0.351

folding stability dG unfold measured on SMKVIIIERPDESGVPVVIVLPEEEALELYRKLFNVPMSVEEFAEKLKELNPNVKVEVVPLEEVSEEVLLSA [r9_1085_JUSTAS] = 2.28

folding stability dG unfold measured on SAGGSAGGSLKKGEKVKLRARIYEPGGGKLLAELEIEADVGKAEEIAEELRKAFPGYEVEIELSAGGSAGGS [r12_21_TrMRF] = 3.24

folding stability dG unfold measured on SAGGSAGGSGKPEKVKITYTKDTNTNKYTATITFENGPTYKITFPTKTPEEAIEQAKKLIEASSAGGSAGGS [r12_339_TrMRF] = 2.05
